Tested on: Staphylococcus aureus SA1199B
Format: cell-based

>  <Compound>
CNC(CC(C)C)C(=O)NC1C(=O)NC(CC(N)=O)C(=O)NC2C(=O)NC3C(=O)NC(C(=O)NC(C(=O)O)c4cc(O)cc(O)c4-c4cc3ccc4O)C(OC3CC(C)(N)C(O)C(C)O3)c3ccc(c(Cl)c3)Oc3cc2cc(c3OC2OC(CO)C(O)C(O)C2OC2CC(C)(NCc3ccc(-c4cccc(C)c4)cc3)C(O)C(C)O2)Oc2ccc(cc2Cl)C1O (stereo not drawn)

>  <MIC / µg/mL>
0.5

$$$$
>  <Compound>
CNC(CC(C)C)C(=O)NC1C(=O)NC(CC(N)=O)C(=O)NC2C(=O)NC3C(=O)NC(C(=O)NC(C(=O)O)c4cc(O)cc(O)c4-c4cc3ccc4O)C(OC3CC(C)(NCc4cnc5ccccc5c4)C(O)C(C)O3)c3ccc(c(Cl)c3)Oc3cc2cc(c3OC2OC(CO)C(O)C(O)C2OC2CC(C)(NCc3cnc4ccccc4c3)C(O)C(C)O2)Oc2ccc(cc2Cl)C1O (stereo not drawn)

>  <MIC / µg/mL>
0.125

$$$$
>  <Compound>
CNC(CC(C)C)C(=O)NC1C(=O)NC(CC(N)=O)C(=O)NC2C(=O)NC3C(=O)NC(C(=O)NC(C(=O)O)c4cc(O)cc(O)c4-c4cc3ccc4O)C(OC3CC(C)(N)C(O)C(C)O3)c3ccc(c(Cl)c3)Oc3cc2cc(c3OC2OC(CO)C(O)C(O)C2OC2CC(C)(NCc3cccc(OC(=O)C4CCCCC4)c3)C(O)C(C)O2)Oc2ccc(cc2Cl)C1O (stereo not drawn)

>  <MIC / µg/mL>
1

$$$$
